# Tested on: influenza A (H3N2)
# procedure details: microbe, parasite or virus in culture
# Type: cell-based
# condition details: strain A(H3N2), MDCK cells
value type: Selectivity Index (CC50 divided by EC50)

Consider the following illustrative entries.
Entry Cc1cc(C)nc(NS(=O)(=O)c2ccc(NCN3CCN(c4cc5c(cc4F)c(=O)c(C(=O)O)cn5C4CC4)CC3)cc2)n1 [CF-SDM] — recorded Selectivity Index (CC50 divided by EC50) = >3.3

Entry NC(=O)c1ncn([C@@H]2O[C@H](CO)[C@@H](O)[C@H]2O)n1 [Ribavirin, ribavirin, reference compound] — recorded Selectivity Index (CC50 divided by EC50) = >17

Entry COc1c(N2CCN(CNc3ccc(S(=O)(=O)Nc4nc(C)cc(C)n4)cc3)CC2)c(F)cc2c(=O)c(C(=O)O)cn(C3CC3)c12 [GF-SDM] — recorded Selectivity Index (CC50 divided by EC50) = >2.6

Okay, now this molecule:
Entry COc1c(N2CCN(CNc3ccc(S(=O)(=O)Nc4ncccn4)cc3)CC2)c(F)cc2c(=O)c(C(=O)O)cn(C3CC3)c12 [GF-SD] — recorded Selectivity Index (CC50 divided by EC50) = >1.9

====

# System: influenza A (H3N2)
# procedure details: microbe, parasite or virus in culture
# Assay type: cell-based
# condition details: Influenza A virus, H3N2, MDCK, read-out: EC50, 50% effective (virus-inhibitory) concentration
value type: EC50

Consider the following illustrative entries.
Entry O=C(O)c1cn(C2CC2)c2cc(N3CCN(CNc4ccc(S(=O)(=O)Nc5ncccn5)cc4)CC3)c(F)cc2c1=O [CF-SD] — recorded EC50 = 41 µg/mL

Entry COc1c(N2CCN(CNc3ccc(S(N)(=O)=O)cc3)CC2)c(F)cc2c(=O)c(C(=O)O)cn(C3CC3)c12 [GF-SA] — recorded EC50 = > 100 µg/mL

Entry CCn1cc(C(=O)O)c(=O)c2cc(F)c(N3CCN(CNc4ccc(S(N)(=O)=O)cc4)CC3)cc21 [NF-SA] — recorded EC50 = > 100 µg/mL

Entry Cc1cc(C)nc(NS(=O)(=O)c2ccc(NCN3CCN(c4cc5c(cc4F)c(=O)c(C(=O)O)cn5C4CC4)CC3)cc2)n1 [CF-SDM] — recorded EC50 = 30 µg/mL

Entry NC(=O)c1ncn([C@@H]2O[C@H](CO)[C@@H](O)[C@H]2O)n1 [Ribavirin, ribavirin, reference compound] — recorded EC50 = 5.9 µg/mL

Entry COc1c(N2CCN(CNc3ccc(S(=O)(=O)Nc4nc(C)cc(C)n4)cc3)CC2)c(F)cc2c(=O)c(C(=O)O)cn(C3CC3)c12 [GF-SDM] — recorded EC50 = 38 µg/mL

Entry COc1c(N2CCN(CNc3ccc(S(=O)(=O)Nc4ncccn4)cc3)CC2)c(F)cc2c(=O)c(C(=O)O)cn(C3CC3)c12 [GF-SD] — recorded EC50 = 52 µg/mL

Okay, now this molecule:
Entry CCn1cc(C(=O)O)c(=O)c2cc(F)c(N3CCN(CNc4ccc(S(=O)(=O)Nc5ncccn5)cc4)CC3)cc21 [NF-SD] — recorded EC50 = > 100 µg/mL

====

Documented Selectivity Index (CC50 divided by EC50) across a set of compounds
# Test system: influenza B
# procedure details: microbe, parasite or virus in culture
# Format: cell-based
# condition details: strain B, MDCK cells

Entry `COc1c(N2CCN(CNc3ccc(S(=O)(=O)Nc4ncccn4)cc3)CC2)c(F)cc2c(=O)c(C(=O)O)cn(C3CC3)c12` — recorded Selectivity Index (CC50 divided by EC50) = >1

***
Entry `Cc1cc(C)nc(NS(=O)(=O)c2ccc(NCN3CCN(c4cc5c(cc4F)c(=O)c(C(=O)O)cn5C4CC4)CC3)cc2)n1` — recorded Selectivity Index (CC50 divided by EC50) = >2

Entry `O=C(O)c1cn(C2CC2)c2cc(N3CCN(CNc4ccc(S(=O)(=O)Nc5ncccn5)cc4)CC3)c(F)cc2c1=O` — recorded Selectivity Index (CC50 divided by EC50) = >3

Entry `CCn1cc(C(=O)O)c(=O)c2cc(F)c(N3CCN(CNc4ccc(S(N)(=O)=O)cc4)CC3)cc21` — recorded Selectivity Index (CC50 divided by EC50) = >1.3

====

# Tested on: influenza B
# procedure details: microbe, parasite or virus in culture
# Type: cell-based
# condition details: Influenza B virus; strain B, MDCK cells, CPE inhibition, neutral red; read-out: EC50, 50% effective (virus-inhibitory) concentration
value type: EC50 (µg/mL)
The reply should contain only the number, in µg/mL.

Consider the following illustrative entries.
Entry CCn1cc(C(=O)O)c(=O)c2cc(F)c(N3CCN(CNc4ccc(S(N)(=O)=O)cc4)CC3)cc21 [NF-SA] — recorded EC50 = 80

Entry COc1c(N2CCN(CNc3ccc(S(=O)(=O)Nc4nc(C)cc(C)n4)cc3)CC2)c(F)cc2c(=O)c(C(=O)O)cn(C3CC3)c12 [GF-SDM] — recorded EC50 = 11

Entry COc1c(N2CCN(CNc3ccc(S(=O)(=O)Nc4ncccn4)cc3)CC2)c(F)cc2c(=O)c(C(=O)O)cn(C3CC3)c12 [GF-SD] — recorded EC50 = 97

Entry O=C(O)c1cn(C2CC2)c2cc(N3CCN(CNc4ccc(S(=O)(=O)Nc5ncccn5)cc4)CC3)c(F)cc2c1=O [CF-SD] — recorded EC50 = 32

Entry Cc1cc(C)nc(NS(=O)(=O)c2ccc(NCN3CCN(c4cc5c(cc4F)c(=O)c(C(=O)O)cn5C4CC4)CC3)cc2)n1 [CF-SDM] — recorded EC50 = 53

***
Entry COc1c(N2CCN(CNc3ccc(S(N)(=O)=O)cc3)CC2)c(F)cc2c(=O)c(C(=O)O)cn(C3CC3)c12 [GF-SA] — recorded EC50 = 36

Entry NC(=O)c1ncn([C@@H]2O[C@H](CO)[C@@H](O)[C@H]2O)n1 [Ribavirin, ribavirin, reference compound] — recorded EC50 = 5.5

====

# Tested on: influenza B
# procedure details: microbe, parasite or virus in culture
# Assay type: cell-based
# condition details: strain B, MDCK cells
Documented Selectivity Index (CC50 divided by EC50) across a set of compounds

Consider the following illustrative entries.
Entry COc1c(N2CCN(CNc3ccc(S(=O)(=O)Nc4nc(C)cc(C)n4)cc3)CC2)c(F)cc2c(=O)c(C(=O)O)cn(C3CC3)c12 [GF-SDM] — recorded Selectivity Index (CC50 divided by EC50) = >9

Entry NC(=O)c1ncn([C@@H]2O[C@H](CO)[C@@H](O)[C@H]2O)n1 [Ribavirin, ribavirin, reference compound] — recorded Selectivity Index (CC50 divided by EC50) = >18

Okay, now this compound:
Entry COc1c(N2CCN(CNc3ccc(S(N)(=O)=O)cc3)CC2)c(F)cc2c(=O)c(C(=O)O)cn(C3CC3)c12 [GF-SA] — recorded Selectivity Index (CC50 divided by EC50) = >3

====

Documented CC50 at 5 d across a set of compounds
# procedure details: Cytotoxicity against mock-infected MT-4 cells, MTT
# Type: cell-based
# condition details: human; mock-infected MT-4 cells, MTT; read-out: CC50, concentration required to reduce the viability of mock-infected MT-4 cells by 50%
Param answer (str): number followed by unit.

Consider the following illustrative entries.
Entry `COc1c(N2CCN(CNc3ccc(S(=O)(=O)Nc4ncccn4)cc3)CC2)c(F)cc2c(=O)c(C(=O)O)cn(C3CC3)c12` — recorded CC50 at 5 d = 70.1 µM

Entry `CCn1cc(C(=O)O)c(=O)c2cc(F)c(N3CCN(CNc4ccc(S(N)(=O)=O)cc4)CC3)cc21` — recorded CC50 at 5 d = 75.5 µM

Entry `COc1c(N2CCN(CNc3ccc(S(N)(=O)=O)cc3)CC2)c(F)cc2c(=O)c(C(=O)O)cn(C3CC3)c12` — recorded CC50 at 5 d = 58.7 µM

Entry `Cc1cc(C)nc(NS(=O)(=O)c2ccc(NCN3CCN(c4cc5c(cc4F)c(=O)c(C(=O)O)cn5C4CC4)CC3)cc2)n1` — recorded CC50 at 5 d = 70.8 µM

Entry `O=C(O)c1cn(C2CC2)c2cc(N3CCN(CNc4ccc(S(=O)(=O)Nc5ncccn5)cc4)CC3)c(F)cc2c1=O` — recorded CC50 at 5 d = 74.1 µM

Entry `CCn1cc(C(=O)O)c(=O)c2cc(F)c(N3CCN(CNc4ccc(S(=O)(=O)Nc5nc(C)cc(C)n5)cc4)CC3)cc21` — recorded CC50 at 5 d = 56.3 µM

***
Entry `COc1c(N2CCN(CNc3ccc(S(=O)(=O)Nc4nc(C)cc(C)n4)cc3)CC2)c(F)cc2c(=O)c(C(=O)O)cn(C3CC3)c12` — recorded CC50 at 5 d = 39.4 µM

Entry `CCn1cc(C(=O)O)c(=O)c2cc(F)c(N3CCN(CNc4ccc(S(=O)(=O)Nc5ncccn5)cc4)CC3)cc21` — recorded CC50 at 5 d = 66.8 µM
